Origin of measurements: the supplement of paper PMC5908809

System: normal primary NK cells, pool 2 (3 donors) (IL-2 2.5 ng/mL)
Assay: percent inhibition of viability; higher = more inhibition;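 also: normalised to DMSO-only wells as negative and benzethonium chloride as positive control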
Conditions: 72 h; 10000 nM
Field 'label' (enum: criterion met / criterion not met). Set to criterion met when percent inhibition of viability is strictly under 20%; else criterion not met.

{"MOLECULE": "COc1cc2c(cc1-c1c(C)noc1C)ncc1[nH]c(=O)n([C@H](C)c3ccccn3)c12 [I-BET151] (max concentration tested 10000 nM)", "ANSWER LABEL": "criterion not met"}
{"MOLECULE": "O[C@H]1CC[C@H](Nc2ncc3nc(Nc4c(F)cc(F)cc4F)n([C@H]4CCOC4)c3n2)CC1 [Tanzisertib] (max concentration tested 10000 nM)", "ANSWER LABEL": "criterion met"}
{"MOLECULE": "CN(C)Cc1ccc(S(=O)(=O)n2ccc(/C=C/C(=O)NO)c2)cc1 [Resminostat] (max concentration tested 10000 nM)", "ANSWER LABEL": "criterion not met"}
{"MOLECULE": "Cc1nc(Nc2n[nH]c3c2CN(C(=O)N[C@H](CN(C)C)c2ccccc2)C3(C)C)c2sccc2n1 (max concentration tested 10000 nM)", "ANSWER LABEL": "criterion not met"}
{"MOLECULE": "CC[C@@]1(O)C(=O)OCc2c1cc1n(c2=O)Cc2cc3c(CN(C)C)c(O)ccc3nc2-1 [Topotecan] (max concentration tested 10000 nM)", "ANSWER LABEL": "criterion not met"}
{"MOLECULE": "NC(=O)c1cccc2cn(-c3ccc([C@@H]4CCCNC4)cc3)nc12 [Niraparib] (max concentration tested 10000 nM)", "ANSWER LABEL": "criterion met"}

###

System: NK-92 (IL-2 2.5 ng/mL)
Test: percent inhibition of viability; higher = more inhibition
Conditions: 72 h; 10 nM

{"COMPOUND": "O=C(c1cc(Cc2n[nH]c(=O)c3ccccc23)ccc1F)N1CCN(C(=O)C2CC2)CC1 [Olaparib] (max concentration tested 10000 nM)", "MEASUREMENT UNIT": "%", "percent inhibition of viability": 9.54}
{"COMPOUND": "CCNC(=O)c1noc(-c2cc(C(C)C)c(O)cc2O)c1-c1ccc(CN2CCOCC2)cc1 [Luminespib] (max concentration tested 1000 nM)", "MEASUREMENT UNIT": "%", "percent inhibition of viability": 66.9}
{"COMPOUND": "Cc1cn(-c2cc(NC(=O)c3ccc(C)c(Nc4nccc(-c5cccnc5)n4)c3)cc(C(F)(F)F)c2)cn1 [Nilotinib] (max concentration tested 10000 nM)", "MEASUREMENT UNIT": "%", "percent inhibition of viability": 5.92}
{"COMPOUND": "Cc1ncc(-c2ccnc(Nc3ccc(S(C)(=O)=O)cc3)n2)n1C(C)C [AZD-5438] (max concentration tested 10000 nM)", "MEASUREMENT UNIT": "%", "percent inhibition of viability": -8.65}
{"COMPOUND": "CC(C)C[C@H](NC(=O)[C@H](CCc1ccccc1)NC(=O)CN1CCOCC1)C(=O)N[C@@H](Cc1ccccc1)C(=O)N[C@@H](CC(C)C)C(=O)[C@@]1(C)CO1 [Carfilzomib] (max concentration tested 1000 nM)", "MEASUREMENT UNIT": "%", "percent inhibition of viability": 101}
